target: D(1A) dopamine receptor (Homo sapiens); assay: Antagonist of Human D 1 Dopamine Receptor: qHTS; conditions: HEK293 TREx D1 cells, calcium flux, dopamine EC80; at 10 µM
Hit rate of the full screen: of about 360,000 compounds, about 11,000 (3.1%) were called active. Cut-off read from the data, not from the text of the source: active = activity change below about -30%; inactive = the rest. This excerpt belongs to a sample that is enriched for actives.
Pick one and only one: active, inactive

Examples from the recorded data:
COMPOUND: CCN(CC)S(=O)(=O)c1ccc2c(c1)nc(CN(C)C(=O)Nc1ccc(Cl)cc1)n2C
CLASS_LABEL: active
//
COMPOUND: O=C(O)CC/C(=C\c1cc2c(cc1Br)OCO2)c1nc2ccccc2s1
CLASS_LABEL: inactive
//
COMPOUND: Nn1c(SCC(=O)NC(=O)NC2CCCC2)nnc1-c1ccccc1F
CLASS_LABEL: active

What call does the record list for "O=C(NCCc1ccccc1)c1ccc2c(c1)N(Cc1ccccc1)C(=O)c1ccccc1S2(=O)=O" ?
active

For CCC(NC(=O)c1cc(COc2ccc(F)c(F)c2)on1)c1ccncc1 (configuration not stated) , what call appears in the results of this test?
inactive

Per the records of this test, what outcome belongs to "CC1=CC(=C(C#N)c2nc3ccccc3s2)C=C(C)N1c1ccc(F)cc1F" ?
inactive

Dear colleague, could you share the recorded outcome for Cc1ccc(Cl)cc1NC(=O)C(C)n1nnc2sc(-c3ccccc3)cc2c1=O (configuration not stated) when you have a moment?
inactive

Record lookup: outcome of this test for "CCCCSc1ncnc2c1sc1nc(N3CCOCC3)c3c(c12)CCCC3" ?
inactive

What call does the record list for "CCc1ccc(NC(=O)CN2C(=O)C(c3ccccc3)=NC23CCCCCC3)cc1" ?
inactive

Hey, what did the test say about O=C(C1CCCO1)N1CCC(c2nc3ccccc3[nH]2)CC1 (configuration not stated) ?
inactive

What was the test verdict on "COc1ccc([C@H]2CC(=O)C=C(c3ccc(OC(F)(F)F)cc3)C2)cc1OC" ?
inactive

So what was the verdict on "COc1ccc(N2CCN(c3nc(-c4ccccc4F)nc4ccccc34)CC2)cc1" in this test?
inactive

Just curious, what result did "COc1cc(OC)c(-n2cc(-c3ccc(Cl)cc3)[nH]c2=O)cc1Cl" get here?
active

Per the assay record, what outcome was assigned to C=C(Cl)COC(=O)C1C2C=CC(C2)C1C(=O)O (configuration not stated) ?
inactive

Please let me know the test result on file for CCOc1ccccc1CNC(=O)c1ccc2c(c1)nc1n2CCC(C)C1 (configuration not stated) .
inactive

Kindly provide the recorded test outcome for the following compound: "COc1ccc(-c2onc(C)c2C)cc1S(=O)(=O)NCCc1ccccc1"
inactive

Tell me the recorded outcome of this test for "Nc1nnn(CC(=O)N/N=C/c2ccc(O)cc2)n1" .
inactive

Please share the test call associated with "COc1cccc(NS(=O)(=O)c2ccc(-c3coc(C)n3)cc2)c1" .
inactive

Lab log entry: "Cc1noc2ncnc(NCc3ccccc3Cl)c12" — outcome as called in the assay?
inactive

Which result was noted for this compound in the test: "Cc1ccc2ncc(C(=O)Nc3ccc(OC(F)(F)F)cc3)c(=O)n2c1"
inactive

What call does the record list for "COCCNC(=O)c1ccc2c(c1)N(Cc1cccc(Cl)c1)C(=O)c1ccccc1S2(=O)=O" ?
inactive
